Test system: Staphylococcus aureus MRSA MC-1
Assay Procedure: microbe, parasite or virus in culture
Type: cell-based
Assay Conditions: Staphylococcus aureus, MRSA, read-out: MIC S. aureus MC-1

>  <Compound>
COc1cc(O)cc(/C=C/c2cccc(O)c2)c1 [SK-04-03]

>  <Qualifying Sign>
=

>  <MIC (µg/mL)>
16

$$$$
>  <Compound>
CCOC(=O)/C=C\Sc1ccccc1C(=O)OC [SK-04-56]

>  <Qualifying Sign>
>

>  <MIC (µg/mL)>
512

$$$$
>  <Compound>
CCOC(=O)/C=C\Sc1ccc(C(C)(C)C)cc1 [SK-04-57]

>  <Qualifying Sign>
>

>  <MIC (µg/mL)>
512

$$$$
>  <Compound>
COc1cc(O)cc(/C=C/c2ccccc2)c1 [CL-3, 3-hydroxy-5-methoxystilbene]

>  <Qualifying Sign>
=

>  <MIC (µg/mL)>
16

$$$$
>  <Compound>
COc1cc(O)cc(/C=C/Oc2ccc3ccccc3c2)c1 [SK-04-23]

>  <Qualifying Sign>
=

>  <MIC (µg/mL)>
8

$$$$
>  <Compound>
COc1cc(O)cc(C#Cc2ccccc2)c1 [SK-04-08]

>  <Qualifying Sign>
=

>  <MIC (µg/mL)>
1

$$$$
>  <Compound>
COc1cc(O)cc(/C=C/Oc2cccc3ccccc23)c1 [SK-04-22]

>  <Qualifying Sign>
=

>  <MIC (µg/mL)>
16

$$$$
>  <Compound>
COc1cc(O)cc(/C=C/c2cc3ccccc3s2)c1 [SK-03-92]

>  <Qualifying Sign>
=

>  <MIC (µg/mL)>
2

$$$$

----------
System: Enterococcus faecium VRE 1
Assay Procedure: organism not typed
Assay type: cell-based
Assay Conditions: Table 3
MIC E. faecium VRE 1, G+ values for the compounds below.
Quantity Name: MIC E. faecium VRE 1, G+ (µg/mL)

>  <Compound>
COc1cc(O)cc(/C=C/c2cccs2)c1

>  <Measurement Target>
Enterococcus faecium VRE 1

>  <Quantity Name>
MIC E. faecium VRE 1, G+

>  <Value Measured>
64

$$$$
>  <Compound>
COc1cc(O)cc(O/C=C/c2ccccc2)c1

>  <Measurement Target>
Enterococcus faecium VRE 1

>  <Quantity Name>
MIC E. faecium VRE 1, G+

>  <Value Measured>
32

$$$$
>  <Compound>
COc1cc(O)cc(/C=C/Oc2cccc(C)c2)c1

>  <Measurement Target>
Enterococcus faecium VRE 1

>  <Quantity Name>
MIC E. faecium VRE 1, G+

>  <Value Measured>
32

$$$$
>  <Compound>
COc1cc(O)cc(/C=C/c2ccccc2)c1 [CL-3, 3-hydroxy-5-methoxystilbene]

>  <Measurement Target>
Enterococcus faecium VRE 1

>  <Quantity Name>
MIC E. faecium VRE 1, G+

>  <Value Measured>
32

$$$$
>  <Compound>
COc1cc(O)cc(/C=C/Sc2ccccc2)c1

>  <Measurement Target>
Enterococcus faecium VRE 1

>  <Quantity Name>
MIC E. faecium VRE 1, G+

>  <Value Measured>
32

$$$$

----------
System: C. elegans
Assay Procedure: motility assay
Type: in vivo
Parameters: key: normal (−); slow (+); very slow (++); not motile/paralyzed (+++)
Assay Conditions: dilution 1/400 of stock (10.24 μg/μL; SK-03-92 1.024 μg/μL); Ive 1 ng/μL in all wells

>  <Compound>
COc1cc(O)cc(/C=C/Sc2ccccc2)c1

>  <Movement score, 1/400>
++

$$$$
>  <Compound>
COc1cc(O)cc(/C=C/c2ccccc2)c1 [CL-3, 3-hydroxy-5-methoxystilbene]

>  <Movement score, 1/400>
+

$$$$
>  <Compound>
COc1cc(O)cc(/C=C/Oc2ccc(C)cc2)c1

>  <Movement score, 1/400>
+++

$$$$
>  <Compound>
COc1cc(O)cc(/C=C/Oc2ccccc2)c1

>  <Movement score, 1/400>
−

$$$$
>  <Compound>
COc1cc(O)cc(O/C=C/c2ccccc2)c1

>  <Movement score, 1/400>
+++

$$$$
>  <Compound>
COc1cc(O)cc(/C=C/Sc2ccc3ccccc3c2)c1

>  <Movement score, 1/400>
++

$$$$
>  <Compound>
COc1cc(O)cc(/C=C/c2cccc(O)c2)c1

>  <Movement score, 1/400>
+

$$$$
>  <Compound>
COc1cc(O)cc(/C=C/Oc2ccc3ccccc3c2)c1

>  <Movement score, 1/400>
++

$$$$
>  <Compound>
COc1cc(O)cc(/C=C/Oc2cccc(C)c2)c1

>  <Movement score, 1/400>
++

$$$$
>  <Compound>
CCOC(=O)/C=C\Sc1nc2ccccc2s1

>  <Movement score, 1/400>
−

$$$$
>  <Compound>
COc1ccc(O/C=C/c2cc(O)cc(OC)c2)cc1

>  <Movement score, 1/400>
++

$$$$
>  <Compound>
COc1cc(O)cc(/C=C/Sc2cccc3ccccc23)c1

>  <Movement score, 1/400>
++

$$$$
>  <Compound>
CCC(C)CS/C=C/c1cc(O)cc(OC)c1 (centres unmarked)

>  <Movement score, 1/400>
++

$$$$
>  <Compound>
COc1cc(O)cc(/C=C/Oc2cccc3ccccc23)c1

>  <Movement score, 1/400>
+

$$$$
>  <Compound>
COc1cc(O)cc(C#Cc2ccccc2)c1

>  <Movement score, 1/400>
++

$$$$
>  <Compound>
COc1cc(O)cc(/C=C/Sc2ccccc2C(C)C)c1

>  <Movement score, 1/400>
−

$$$$
>  <Compound>
COc1cc(O)cc(/C=C/c2ccc3ccccc3c2)c1

>  <Movement score, 1/400>
++

$$$$
>  <Compound>
COc1cc(O)cc(/C=C/SC2CCCCC2)c1

>  <Movement score, 1/400>
+

$$$$
>  <Compound>
COc1cc(O)cc(/C=C/Oc2cccc(OC)c2)c1

>  <Movement score, 1/400>
++

$$$$
>  <Compound>
COc1cc(O)cc(/C=C/c2cccs2)c1

>  <Movement score, 1/400>
+++

$$$$
>  <Compound>
COc1cc(O)cc(/C=C/c2ccsc2)c1

>  <Movement score, 1/400>
+++

$$$$
>  <Compound>
COc1cc(O)cc(/C=C/c2cc3ccccc3s2)c1

>  <Movement score, 1/400>
−

$$$$
>  <Compound>
CCOC(=O)/C=C\Sc1ccc(C(C)(C)C)cc1

>  <Movement score, 1/400>
−

$$$$
